# target_or_test_system: recombinant IRAK-4 kinase (Homo sapiens, UniProt Q9NWZ3)
# Construct: purchased Millipore, USA
# assay_overview: IRAK-4 biochemical assay (TR-FRET)
# protocol_conditions: IRAK-4 enzyme, dose response, 20 μM ATP
Counter-ions that a name gives are not always drawn.
assay_readout: IC50

>>> print(df.to_string())
                                   compound   result_value
0  Cn1cc2cc(N3CCC(O)CC3)c(NC(=O)c3cnn4cccnc34)cc2n1 [Example 47, hydrochloride]  100 to 250 nM
1  Cn1ncc2cc(N3CC[C@@H](O)C3)c(NC(=O)c3coc(-c4cccnc4N)n3)cc21 [Example 29, hydrochloride]       < 100 nM
2  Cc1cc(-c2nc(C(=O)Nc3cc4c(cnn4C)cc3N3CCC(O)CC3)co2)ccn1       < 100 nM
3  Cn1ncc2cc(N3CC[C@H](O)C3)c(NC(=O)c3cnn4cccnc34)cc21 [Example 48, hydrochloride]       > 250 nM
4  Cn1ncc2cc(N3CCCCC3)c(NC(=O)c3coc(N4CC[C@H](N)C4)n3)cc21  100 to 250 nM
5  Cc1cc(-c2nc(C(=O)Nc3cc4[nH]ncc4cc3N3CC[C@H](O)C3)co2)ccn1       > 250 nM
6  Cc1nccc(-c2nc(C(=O)Nc3cc4c(cnn4C)cc3N3CC[C@H](O)C3)co2)n1 [Example 35, hydrochloride]  100 to 250 nM

* * *

# target_or_test_system: recombinant IRAK-4 kinase (Homo sapiens)
# Construct: purchased Millipore, USA
# assay_overview: IRAK-4 biochemical assay (TR-FRET)
# protocol_conditions: IRAK-4 enzyme, compound at 1 μM, 20 μM ATP
Where a name gives a salt, the structure may show the parent alone.
In this section we review reported inhibition at 1 µM values for a set of molecules.
assay_readout: inhibition at 1 µM (%)

>>> print(df.to_string())
                                    molecule  unit_descriptor  result_value
 0  Cn1ncc2cc(N3CC[C@H](O)C3)c(NC(=O)c3coc(-c4ccnc(N)c4)n3)cc21                %            96
 1  Cc1cc(-c2nc(C(=O)Nc3cc4c(cnn4C)cc3N3CC[C@H](O)C3)c(C)o2)ccn1 [Example 41, hydrochloride]                %            17
 2  Cc1cc(-c2nc(C(=O)Nc3cc4c(cnn4C4CC4)cc3N3CC[C@H](O)C3)co2)ccn1 [Example 33, hydrochloride]                %            87
 3  Cn1ncc2cc(N3CCCCC3)c(NC(=O)c3coc(N4CC[C@H](N)C4)n3)cc21                %            84
 4  Cn1ncc2cc(N3CC[C@@H](O)C3)c(NC(=O)c3coc(-c4cccnc4N)n3)cc21 [Example 29, hydrochloride]                %            95
 5  Cc1cc(-c2nc(C(=O)Nc3cc4c(cnn4C)cc3N3CCCC(F)C3)co2)ccn1 (stereo not drawn)                %            99
 6  Cc1cc(-c2nc(C(=O)Nc3cc4c(cnn4C)cc3N3CC[C@@H](O)C3)co2)ccn1                %            96
 7  Cn1cc2cc(N3CCC(O)CC3)c(NC(=O)c3cnn4cccnc34)cc2n1 [Example 47, hydrochloride]                %            89
 8  Cn1ncc2cc(N3CC[C@H](O)C3)c(NC(=O)c3coc(-c4ccnc(C5CC5)c4)n3)cc21 [Example 46, hydrochloride]                %            97
 9  Cc1nccc(-c2nc(C(=O)Nc3cc4c(cnn4C)cc3N3CC[C@H](O)C3)co2)n1 [Example 35, hydrochloride]                %            93
10  Cn1ncc2cc(N3CCCCC3)c(NC(=O)c3cccc(N4CC[C@H](O)C4)n3)cc21                %            78
11  Cc1cc(-c2nc(C(=O)Nc3cc4nn(C)cc4cc3N3CCCCC3)co2)ccn1 [Example 2, hydrochloride]                %            98

* * *

# target_or_test_system: recombinant IRAK-4 kinase (Homo sapiens, UniProt Q9NWZ3)
# assay_overview: IRAK-4 biochemical assay (TR-FRET)
# protocol_conditions: IRAK-4 enzyme, dose response, 20 μM ATP
pIC50: −log10 of the molar value. Structures can show the parent of a compound that is named as a salt.
List of pIC50 values.
assay_readout: pIC50

In [3]: df
Out[3]:
                                   molecule                     target_or_test_system  result_value
0  Cn1ncc2cc(N3CC[C@H](O)C3)c(NC(=O)c3cccc(N4CC[C@H](O)C4)n3)cc21  recombinant IRAK-4 kinase (Homo sapiens, UniProt Q9NWZ3)        < 6.60
1  Cc1cc(-c2nc(C(=O)Nc3cc4c(cnn4C)cc3N3C4CCC3CC(O)C4)co2)ccn1 (stereo not shown)  recombinant IRAK-4 kinase (Homo sapiens, UniProt Q9NWZ3)        < 6.60
2  CCc1cc(-c2nc(C(=O)Nc3cc4c(cnn4C)cc3N3CC[C@H](O)C3)co2)ccn1 [Example 42, hydrochloride]  recombinant IRAK-4 kinase (Homo sapiens, UniProt Q9NWZ3)        > 7.00
3  Cn1ncc2cc(N3CC[C@H](O)C3)c(NC(=O)c3coc(-c4cccnc4N)n3)cc21  recombinant IRAK-4 kinase (Homo sapiens, UniProt Q9NWZ3)        > 7.00

* * *

# target_or_test_system: recombinant IRAK-4 kinase (Homo sapiens, UniProt Q9NWZ3)
# Sequence (Q9NWZ3 1-460): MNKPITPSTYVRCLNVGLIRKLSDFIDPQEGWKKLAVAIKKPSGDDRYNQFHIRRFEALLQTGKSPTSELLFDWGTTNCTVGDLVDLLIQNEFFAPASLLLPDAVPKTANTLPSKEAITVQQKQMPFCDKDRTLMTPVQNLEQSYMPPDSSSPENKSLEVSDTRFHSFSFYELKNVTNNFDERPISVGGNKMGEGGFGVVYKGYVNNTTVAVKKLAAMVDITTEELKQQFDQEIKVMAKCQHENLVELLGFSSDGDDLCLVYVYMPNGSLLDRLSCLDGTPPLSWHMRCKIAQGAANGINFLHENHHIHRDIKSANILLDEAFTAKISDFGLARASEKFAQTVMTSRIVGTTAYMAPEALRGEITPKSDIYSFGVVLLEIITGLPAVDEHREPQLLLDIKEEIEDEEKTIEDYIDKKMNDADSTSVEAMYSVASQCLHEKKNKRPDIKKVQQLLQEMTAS
# assay_overview: IRAK-4 biochemical assay (TR-FRET)
# protocol_conditions: IRAK-4 enzyme, dose response, 20 μM ATP
pIC50: −log10 of the molar value. Structures can show the parent of a compound that is named as a salt.
List of pIC50 values.
assay_readout: pIC50

                                   compound  assay_readout  result_value
0  Cn1ncc2cc(N3CC[C@H](O)C3)c(NC(=O)c3coc(-c4ccnc5[nH]ccc45)n3)cc21          pIC50        > 7.00
1  Cc1cc(-c2nc(C(=O)Nc3cc4c(cnn4C)cc3N3CC[C@@H](O)C3)co2)ccn1          pIC50        > 7.00
2  Cn1ncc2cc(N3CC[C@H](O)C3)c(NC(=O)c3coc(-c4ccnc(C5CC5)c4)n3)cc21 [Example 46, hydrochloride]          pIC50        > 7.00
3  Cc1cc(-c2nc(C(=O)Nc3cc4nn(C)cc4cc3N3CCCCC3)co2)ccn1 [Example 2, hydrochloride]          pIC50        > 7.00
4  Cc1cc(-c2nc(C(=O)Nc3cc4c(cnn4C)cc3N3CCCCC3)co2)ccn1 [Example 1, hydrochloride]          pIC50        > 7.00
5  Cc1cc(-c2nc(C(=O)Nc3cc4c(cnn4C)cc3N3CCCC(F)C3)co2)ccn1 (centres unmarked)          pIC50        > 7.00
6  Cc1cc(-c2nc(C(=O)Nc3cc4c(cnn4C)cc3N3CC[C@H](O)C3)co2)cc(C)n1          pIC50  6.60 to 7.00
7  Cn1ncc2cc(N3CCCCC3)c(NC(=O)c3cccc(N4CC[C@H](O)C4)n3)cc21          pIC50        < 6.60

* * *

Listed compounds paired with reported inhibition at 0.1 µM
# target_or_test_system: recombinant IRAK-4 kinase (Homo sapiens)
# Construct: purchased Millipore, USA
# assay_overview: IRAK-4 biochemical assay (TR-FRET)
# protocol_conditions: IRAK-4 enzyme, compound at 0.1 μM, 20 μM ATP
Where a name gives a salt, the structure may show the parent alone.
assay_readout: inhibition at 0.1 µM (%)

                                    compound  result_value
 0  Cn1ncc2cc(N3CC[C@H](O)C3)c(NC(=O)c3cccc(N4CC[C@H](O)C4)n3)cc21 [Example 25]            24
 1  Cc1cc(-c2nc(C(=O)Nc3cc4c(cnn4C4CC4)cc3N3CC[C@H](O)C3)co2)ccn1 [Example 33, hydrochloride]            25
 2  Cc1nccc(-c2nc(C(=O)Nc3cc4c(cnn4C)cc3N3CC[C@H](O)C3)co2)n1 [Example 35, hydrochloride]            45
 3  Cc1cc(-c2nc(C(=O)Nc3cc4c(cnn4C)cc3N3CC[C@H](O)C3)co2)cc(C)n1 [Example 21]            41
 4  Cc1cc(-c2nc(C(=O)Nc3cc4c(cnn4C)cc3N3CCC(O)CC3)co2)ccn1 [Example 17]            93
 5  Cn1ncc2cc(N3CC[C@H](O)C3)c(NC(=O)c3coc(N4CCNCC4)n3)cc21 [Example 31, hydrochloride]             0
 6  Cn1cc2cc(N3CCCCC3)c(NC(=O)c3coc(N4CC[C@H](O)C4)n3)cc2n1 [Example 6]            96
 7  CC(=O)Nc1cc(-c2nc(C(=O)Nc3cc4c(cnn4C)cc3N3CC[C@H](O)C3)co2)ccn1 [Example 15]            83
 8  Cc1cc(-c2nc(C(=O)Nc3cc4c(cnn4C)cc3N3CCCC(O)C3)co2)ccn1 (stereo not drawn) [Example 12, hydrochloride]            94
 9  Cn1ncc2cc(N3CC[C@H](O)C3)c(NC(=O)c3coc(-c4ccnc(C5CC5)c4)n3)cc21 [Example 46, hydrochloride]            93
10  Cc1nn(C)c2cc(NC(=O)c3coc(-c4ccnc(N)c4)n3)c(N3CCC(CO)CC3)cc12 [Example 43, hydrochloride]             0
11  Cn1ncc2cc(N3CCCCC3)c(NC(=O)c3cccc(N4CC[C@H](O)C4)n3)cc21 [Example 9]            83
12  CN1CCN(c2nc(C(=O)Nc3cc4c(cnn4C)cc3N3CC[C@H](O)C3)co2)CC1 [Example 30, hydrochloride]             0
13  Cn1ncc2cc(N3CCCCC3)c(NC(=O)c3cccc(N4CC[C@H](N)C4)n3)cc21 [Example 8]            90
14  Cn1ncc2cc(N3CC[C@H](O)C3)c(NC(=O)c3coc(-c4ccnc5[nH]ccc45)n3)cc21 [Example 26]            96
